B1: Lysozyme C, P61626 (parent)
chain: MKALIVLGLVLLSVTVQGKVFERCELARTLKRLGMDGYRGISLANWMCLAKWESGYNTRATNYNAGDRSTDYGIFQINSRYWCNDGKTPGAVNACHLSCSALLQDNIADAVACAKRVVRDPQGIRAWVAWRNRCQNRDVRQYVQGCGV

Variants of: B1
test-context: Homo sapiens; pH 2.7; Thermal; DSC; glycine 0.05 M; reversible: yes; structure 1LZ1; whole UniProt chain shown
quantity-kind: unfolding enthalpy (calorimetric) (kcal/mol)
Please state the figure in kcal/mol; there is no need to write the unit.

Would you please look over these solved cases?
Query: Look at this variant and give its reported unfolding enthalpy (calorimetric). MKALIVLGLVLLSVTVQGKVFERCELARTLKRLGMDGYRGISLANWMCLAKWESGYNTRATNYNAGDRSTDYGIFQGNSRYWCNDGKTPGAVNACHLSCSALLQDNIADAVACAKRVVRDPQGIRAWVAWRNRCQNRDVRQYVQGCGV [I77G]
Response: 106

Query: Consider next the variant MKALIVLGLVLLSVTVQGKVFERCELARTLKRLGMDGYRGISLANWMCLAKWESGYNTRATNYNAGDRSTDYGTFQINSRYWCNDGKTPGAVNACHLSCSALLQDNIADAVACAKRVVRDPQGIRAWVAWRNRCQNRDVRQYVQGCGV [I74T] in the same way.
Response: 102

Query: Consider next the variant MKALIVLGLVLLSVTVQGKVFERCELARTLKRLGMDGYRGISLANWMCLAKWESGYNTRATNYNAGDRSTDYGIFQMNSRYWCNDGKTPGAVNACHLSCSALLQDNIADAVACAKRVVRDPQGIRAWVAWRNRCQNRDVRQYVQGCGV [I77M] in the same way.
Response: 106

Query: Consider next the variant MKALIVLGLVLLSVTVQGKVFERCELARTLKRLGMDGYRGISLANWMCLAKWESGYNTRATNYNAGDRSTDYGVFQINSRYWCNDGKTPGAVNACHLSCSALLQDNIADAVACAKRVVRDPQGIRAWVAWRNRCQNRDVRQYVQGCGV [I74V] in the same way.
Response: 114

Query: Consider next the variant MKALIVLGLVLLSVTVQGKVFERCELARTLKRLGMDGYRGISLANWMCLAKWESGYNTRATNYNAGDRSTDYGIFQLNSRYWCNDGKTPGAVNACHLSCSALLQDNIADAVACAKRVVRDPQGIRAWVAWRNRCQNRDVRQYVQGCGV [I77L] in the same way.
Response: 114

More entries:
Query: Look at this variant and give its reported unfolding enthalpy (calorimetric). MKALIVLGLVLLSVTVQGKVFERCELARTLKRLGMDGYRGISLANWMCLAKWESGYNTRATNYNAGDRSTDYGLFQINSRYWCNDGKTPGAVNACHLSCSALLQDNIADAVACAKRVVRDPQGIRAWVAWRNRCQNRDVRQYVQGCGV [I74L]
Response: 107

Query: Consider next the variant MKALIVLGLVLLSVTVQGKVFERCELARTLKRLGMDGYRGISLANWMCLAKWESGYNTRATNYNAGDRSTDYGIFQANSRYWCNDGKTPGAVNACHLSCSALLQDNIADAVACAKRVVRDPQGIRAWVAWRNRCQNRDVRQYVQGCGV [I77A] in the same way.
Response: 115

Query: Consider next the variant MKALIVLGLVLLSVTVQGKVFERCELARTLKRLGMDGYRGISLANWMCLAKWESGYNTRATNYNAGDRSTDYGIFQYNSRYWCNDGKTPGAVNACHLSCSALLQDNIADAVACAKRVVRDPQGIRAWVAWRNRCQNRDVRQYVQGCGV [I77Y] in the same way.
Response: 97.8

Query: Consider next the variant MKALIVLGLVLLSVTVQGKVFERCELARTLKRLGMDGYRGISLANWMCLAKWESGYNTRATNYNAGDRSTDYGFFQINSRYWCNDGKTPGAVNACHLSCSALLQDNIADAVACAKRVVRDPQGIRAWVAWRNRCQNRDVRQYVQGCGV [I74F] in the same way.
Response: 102

Query: Consider next the variant MKALIVLGLVLLSVTVQGKVFERCELARTLKRLGMDGYRGISLANWMCLAKWESGYNTRATNYNAGDRSTDYGIFQVNSRYWCNDGKTPGAVNACHLSCSALLQDNIADAVACAKRVVRDPQGIRAWVAWRNRCQNRDVRQYVQGCGV [I77V] in the same way.
Response: 110
